# tested.target: 5-hydroxytryptamine receptor 1A (Rattus norvegicus, UniProt P19327)
# Sequence (P19327 whole entry): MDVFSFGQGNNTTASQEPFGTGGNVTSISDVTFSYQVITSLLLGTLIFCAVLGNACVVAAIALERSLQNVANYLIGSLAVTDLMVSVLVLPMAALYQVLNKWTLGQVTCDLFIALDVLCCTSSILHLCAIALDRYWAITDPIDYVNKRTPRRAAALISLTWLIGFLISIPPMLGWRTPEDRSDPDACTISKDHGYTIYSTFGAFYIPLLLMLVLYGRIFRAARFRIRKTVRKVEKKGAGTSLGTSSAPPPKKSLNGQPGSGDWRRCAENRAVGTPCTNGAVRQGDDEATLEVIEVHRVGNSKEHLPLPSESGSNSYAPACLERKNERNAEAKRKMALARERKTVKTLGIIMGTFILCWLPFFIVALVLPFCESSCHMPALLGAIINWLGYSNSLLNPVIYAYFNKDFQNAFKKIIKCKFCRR
# protocol.description: Binding affinity against 5-hydroxytryptamine 1A (5-HT1A) receptor in rat hippocampus membranes
Provide the reported pIC50 of each item.
Just so you know, pIC50 here is -log10 of the concentration in molar units; reply with that number alone.

Item: CCCN(CCCCCN1C(=O)CC2(CCCC2)CC1=O)C1COc2cccc(OC)c2C1 (centres undefined) Test system: 5-hydroxytryptamine receptor 1A (Rattus norvegicus, UniProt P19327) Read-out: pIC50 Value: ?
9.00

Lookup: pIC50 / 5-hydroxytryptamine receptor 1A (Rattus norvegicus, UniProt P19327) / CCCN(CCCCN1C(=O)c2ccccc2S1(=O)=O)C1COc2cccc(OC)c2C1 (centres undefined)
9.00

Request - read-out pIC50 | tested on 5-hydroxytryptamine receptor 1A (Rattus norvegicus, UniProt P19327) | compound CCCN(CCCCN1C(=O)CC2(CCCC2)CC1=O)C1COc2cccc(O)c2C1 (centres undefined)
9.00

Record CCCN(CCNS(=O)(=O)c1ccc(C)cc1)C1COc2cccc(OC)c2C1 (single isomer, unassigned; (+)) : what is its pIC50 with 5-hydroxytryptamine receptor 1A (Rattus norvegicus, UniProt P19327)?
8.10

====

value.type: pIC50
Scale: negative log10 of molar concentration, which is what pIC50 denotes.

# get_value(readout= pIC50, system= Alpha-2A adrenergic receptor (Bos taurus)) for CCCN(CCCON1C(=O)CC2(CCCC2)CC1=O)C1COc2cccc(OC)c2C1 (stereo unspecified)
5.70

Could you share what pIC50 was measured for CCCN(CCC)C1COc2ccccc2C1 (stereo unspecified) , tested on Alpha-2A adrenergic receptor (Bos taurus)?
4.70

API: value(readout=pIC50, system=Alpha-2A adrenergic receptor (Bos taurus)) for record O=C1CC2(CCCC2)CC(=O)N1CCCCN1CCN(c2ncccn2)CC1 [BUSPIRONE]
5.00

Lab request: please report pIC50 under test system Alpha-2A adrenergic receptor (Bos taurus) for CCCN(CCC)C1COc2cccc(O)c2C1 (stereo unspecified)
5.70

Lab note: need pIC50 with Alpha-2A adrenergic receptor (Bos taurus) for entry CCCN(CCCCN1CC2CCCC2C1=O)C1COc2cccc(OC)c2C1 (stereo unspecified) , please look it up.
5.40

Recorded pIC50 for CCCN(CCCNS(=O)(=O)c1ccc(C)cc1)C1COc2cccc(OC)c2C1 (stereo unspecified) with Alpha-2A adrenergic receptor (Bos taurus), please?
6.30

====

Please respond with reported pIC50 for every item in the list.
Kindly note that pIC50 refers to -log10 of the concentration in mol/L and answer with the value alone.

Provide the documented pIC50 with Alpha-1A adrenergic receptor (Bos taurus, UniProt P18130) as the system for CCCN(CCCCNC(=O)c1ccccc1OC)C1COc2cccc(OC)c2C1 (centres undefined)
Sequence (P18130 whole entry): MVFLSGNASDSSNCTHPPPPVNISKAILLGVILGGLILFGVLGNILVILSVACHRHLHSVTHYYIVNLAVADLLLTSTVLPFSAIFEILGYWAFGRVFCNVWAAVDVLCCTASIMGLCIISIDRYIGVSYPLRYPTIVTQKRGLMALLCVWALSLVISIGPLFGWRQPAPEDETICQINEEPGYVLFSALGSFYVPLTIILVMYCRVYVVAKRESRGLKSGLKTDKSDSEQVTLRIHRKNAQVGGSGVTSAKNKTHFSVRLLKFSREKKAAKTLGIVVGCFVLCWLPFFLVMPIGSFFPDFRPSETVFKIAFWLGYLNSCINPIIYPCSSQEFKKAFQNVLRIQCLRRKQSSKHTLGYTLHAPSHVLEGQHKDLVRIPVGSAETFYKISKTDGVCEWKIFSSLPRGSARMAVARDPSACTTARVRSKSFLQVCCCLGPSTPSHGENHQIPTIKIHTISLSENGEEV
5.52

Param readout = pIC50; param system = Alpha-1A adrenergic receptor (Bos taurus, UniProt P18130); param query = CCCN(CCCCN1C(=O)C2CCCC2C1=O)C1COc2cccc(OC)c2C1 (single isomer, unassigned; (-)) ; response: value
5.10

Lab note: need pIC50 with Alpha-1A adrenergic receptor (Bos taurus, UniProt P18130) for entry CCCN(CCC)C1COc2cccc(O)c2C1 (centres undefined) , please look it up.
4.00

What pIC50 appears in the records for this molecule with Alpha-1A adrenergic receptor (Bos taurus, UniProt P18130)? CCCN(CCCCNS(=O)(=O)c1ccc(C)cc1)C1COc2cccc(OC)c2C1 (single isomer, unassigned; (-))
5.15

====

The following molecules have recorded IC50 on 5-hydroxytryptamine receptor 2A (Bos taurus, UniProt Q75Z89).
Sequence (Q75Z89 whole entry): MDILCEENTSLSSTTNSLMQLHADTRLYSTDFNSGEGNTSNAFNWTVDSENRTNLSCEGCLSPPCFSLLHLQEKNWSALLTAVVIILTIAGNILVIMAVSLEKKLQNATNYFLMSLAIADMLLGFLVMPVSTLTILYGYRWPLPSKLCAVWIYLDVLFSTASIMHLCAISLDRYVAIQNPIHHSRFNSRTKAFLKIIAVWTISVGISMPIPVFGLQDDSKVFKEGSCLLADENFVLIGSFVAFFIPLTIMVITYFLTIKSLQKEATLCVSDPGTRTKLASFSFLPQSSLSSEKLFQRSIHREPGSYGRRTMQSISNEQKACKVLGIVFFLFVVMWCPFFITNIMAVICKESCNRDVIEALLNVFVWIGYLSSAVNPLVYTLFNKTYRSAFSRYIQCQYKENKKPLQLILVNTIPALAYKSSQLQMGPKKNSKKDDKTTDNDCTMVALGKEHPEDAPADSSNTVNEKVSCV
Output spec: scalar in µM, unitless text.

Name the reported IC50 value associated with the molecule CCCN(CCCN1C(=O)CC2(CCCC2)CC1=O)C1COc2cccc(OC)c2C1 (stereo not given)
0.8

I'd like to know its IC50. The molecule in question is CCCN(CCCNS(=O)(=O)c1ccc(C)cc1)C1COc2cccc(OC)c2C1 (stereo not given)
6

So what does the record say about IC50 for CCCN(CCC)C1COc2cccc(OC)c2C1 (stereo in doubt; 4) ?
60

Request the reported IC50 associated with CCCN(CCCCCN1C(=O)CC2(CCCC2)CC1=O)C1COc2cccc(OC)c2C1 (stereo not given)
3

Fill in the blank: the reported IC50 of CCCN(CCC)C1COc2cccc(OC)c2C1 (stereo in doubt; (-)-4) is ____.
4

====

# tested.target: UniProt:P19327
# protocol.description: Binding affinity against 5-hydroxytryptamine 1A (5-HT1A) receptor in rat hippocampus membranes
value.type: IC50 (nM)
Give your result in nM as a bare value.

Fill blank: measured IC50 of the molecule CCC[N+](C)(CCCCN1C(=O)CC2(CCCC2)CC1=O)C1COc2cccc(OC)c2C1 (centres undefined) is ____.
300

Look up IC50: CCCN(CCCCN1CCOCC1)C1COc2cccc(OC)c2C1 (centres undefined)
8

Look up IC50 for this molecule: CCCN(CCC)C1COc2cccc(OC)c2C1 (stereo in doubt; (-)-4)
1

Data request, read-out IC50, for CCCN(CCCCNC(=O)c1ccccc1OC)C1COc2cccc(OC)c2C1 (centres undefined)
1

Look up IC50: CCCN(CCCCN1C(=O)CC2(CCCC2)CC1=O)C1COc2cccc(OC)c2C1.O=C(O)C(=O)O (single isomer, unassigned; (-))
2

Fill blank: measured IC50 of the molecule CCCN(CCCCN1C(=O)C2CCCC2C1=O)C1COc2cccc(OC)c2C1 (stereo in doubt; 9k) is ____.
2

Using the record for CCCN(CCC)C1COc2cccc(OC)c2C1 (single isomer, unassigned; (+)) , report its IC50.
2

Give its IC50 value. Item: CCCN(CCCCNS(=O)(=O)c1ccc(C)cc1)C1COc2cccc(OC)c2C1 (stereo in doubt; 15d)
2

Form field: reported IC50 of CCCN(CCNC(C)=O)C1COc2cccc(OC)c2C1 (centres undefined)
40

====

What pIC50 was measured for each of the following?
# tested.target: D(1A) dopamine receptor (Bos taurus, UniProt Q95136)
# Sequence (Q95136 whole entry): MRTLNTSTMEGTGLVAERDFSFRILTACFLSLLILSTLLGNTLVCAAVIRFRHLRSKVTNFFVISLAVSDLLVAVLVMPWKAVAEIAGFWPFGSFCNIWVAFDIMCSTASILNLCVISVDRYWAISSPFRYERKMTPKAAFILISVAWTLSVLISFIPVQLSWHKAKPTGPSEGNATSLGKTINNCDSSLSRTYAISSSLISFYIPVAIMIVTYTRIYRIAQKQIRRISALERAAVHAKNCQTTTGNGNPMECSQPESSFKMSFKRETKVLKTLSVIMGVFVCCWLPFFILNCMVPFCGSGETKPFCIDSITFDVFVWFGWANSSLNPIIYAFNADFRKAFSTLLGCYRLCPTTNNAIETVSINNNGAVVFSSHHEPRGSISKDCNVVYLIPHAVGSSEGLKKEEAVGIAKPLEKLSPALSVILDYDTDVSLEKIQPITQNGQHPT
# protocol.description: Binding affinity towards dopamine receptor D1 in calf striatum
pIC50 (log units): -log10 of the concentration in mol/L.

Name the reported pIC50 value associated with the molecule CCCN(CCCCN1CC2CCCC2C1=O)C1COc2cccc(OC)c2C1 (centres undefined)
4.22

I am curious: what pIC50 value has been reported for CCC[N+](C)(CCCCN1C(=O)CC2(CCCC2)CC1=O)C1COc2cccc(OC)c2C1 (centres undefined) ?
4.00

Could you tell me which pIC50 is on file for CCCN(CCCCN1C(=O)c2ccccc2C1=O)C1COc2cccc(OC)c2C1 (centres undefined) ?
4.40

Value lookup for pIC50; key = CCCN(CCCCCN1C(=O)CC2(CCCC2)CC1=O)C1COc2cccc(OC)c2C1 (centres undefined)
4.22

====

Answer each item with its documented pIC50.
# tested.target: UniProtKB Q28838
# Sequence (Q28838 whole entry): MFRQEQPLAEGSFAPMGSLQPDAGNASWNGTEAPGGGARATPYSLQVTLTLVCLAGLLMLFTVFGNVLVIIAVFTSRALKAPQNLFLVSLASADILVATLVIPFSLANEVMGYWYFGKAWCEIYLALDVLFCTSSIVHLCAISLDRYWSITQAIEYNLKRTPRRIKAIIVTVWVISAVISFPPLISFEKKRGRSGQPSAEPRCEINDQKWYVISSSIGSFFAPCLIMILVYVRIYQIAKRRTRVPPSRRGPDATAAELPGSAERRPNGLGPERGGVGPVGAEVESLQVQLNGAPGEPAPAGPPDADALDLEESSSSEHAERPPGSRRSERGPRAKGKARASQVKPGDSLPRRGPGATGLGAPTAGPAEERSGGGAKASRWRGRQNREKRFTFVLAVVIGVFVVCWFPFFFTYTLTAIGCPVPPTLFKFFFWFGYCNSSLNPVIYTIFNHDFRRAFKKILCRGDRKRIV
Quick note: pIC50 means taking -log10 of the concentration in moles per liter.

Which pIC50 is reported for this molecule? CCCN(CCC)C1COc2cccc(OC)c2C1 (stereo in doubt; (-)-4)
6.11

Tell me the measured pIC50 of COc1cccc2c1CC(NCCCCN1C(=O)CC3(CCCC3)CC1=O)CO2 (centres undefined) , please.
4.70

Field request: pIC50 | item: CCCN(CCC)C1COc2cccc(OC)c2C1 (stereo in doubt; 4)
5.40

What measured pIC50 goes with CCCN(CCCN1C(=O)CC2(CCCC2)CC1=O)C1COc2cccc(OC)c2C1 (centres undefined) ?
5.22

Consider the molecule CCCN(CCNC(C)=O)C1COc2cccc(OC)c2C1 (centres undefined) and give its measured pIC50.
5.00

Please look up its pIC50: CCCN(CCCCNC(=O)c1ccccc1OC)C1COc2cccc(OC)c2C1 (centres undefined)
7.00

Value lookup for pIC50; key = CCCN(CCC)C1COc2cccc(OC)c2C1 (single isomer, unassigned; (+))
5.04

Find the recorded pIC50 belonging to CCCN(CCCCNS(=O)(=O)c1ccc(C)cc1)C1COc2cccc(OC)c2C1 (single isomer, unassigned; (-)) and report it.
5.70

Hey, just so you know, these numbers are from ChEMBL document CHEMBL1127541.
